molecular target: factor B (Homo sapiens); experiment: factor B inhibition assay of Biological Example 1; type: biochemical; design: CVF-Bb complex prepared from purified cobra venom factor (1 μM), recombinant human complement factor B; made in house; host or cells: drosophila cells (factor B); E. coli (factor D used to form the complex); conditions: IC50 (nM), assay of Biological Example 1 (Table 1)
Sequence (P00751 260-764 limits assumed): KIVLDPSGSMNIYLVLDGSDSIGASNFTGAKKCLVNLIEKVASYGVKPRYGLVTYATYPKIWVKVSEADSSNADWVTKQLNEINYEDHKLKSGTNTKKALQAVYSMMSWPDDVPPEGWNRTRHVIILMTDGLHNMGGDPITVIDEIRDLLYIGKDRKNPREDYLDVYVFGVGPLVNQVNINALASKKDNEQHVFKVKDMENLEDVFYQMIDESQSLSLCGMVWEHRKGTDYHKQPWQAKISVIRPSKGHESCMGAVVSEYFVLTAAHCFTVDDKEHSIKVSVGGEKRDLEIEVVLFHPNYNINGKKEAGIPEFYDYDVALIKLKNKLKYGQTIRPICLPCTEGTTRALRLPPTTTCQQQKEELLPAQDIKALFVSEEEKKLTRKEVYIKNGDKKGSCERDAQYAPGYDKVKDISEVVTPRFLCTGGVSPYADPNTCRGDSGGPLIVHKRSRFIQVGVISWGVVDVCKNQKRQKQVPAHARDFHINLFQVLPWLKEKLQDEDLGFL
Sequence (Q91132 23-649 partner limits assumed): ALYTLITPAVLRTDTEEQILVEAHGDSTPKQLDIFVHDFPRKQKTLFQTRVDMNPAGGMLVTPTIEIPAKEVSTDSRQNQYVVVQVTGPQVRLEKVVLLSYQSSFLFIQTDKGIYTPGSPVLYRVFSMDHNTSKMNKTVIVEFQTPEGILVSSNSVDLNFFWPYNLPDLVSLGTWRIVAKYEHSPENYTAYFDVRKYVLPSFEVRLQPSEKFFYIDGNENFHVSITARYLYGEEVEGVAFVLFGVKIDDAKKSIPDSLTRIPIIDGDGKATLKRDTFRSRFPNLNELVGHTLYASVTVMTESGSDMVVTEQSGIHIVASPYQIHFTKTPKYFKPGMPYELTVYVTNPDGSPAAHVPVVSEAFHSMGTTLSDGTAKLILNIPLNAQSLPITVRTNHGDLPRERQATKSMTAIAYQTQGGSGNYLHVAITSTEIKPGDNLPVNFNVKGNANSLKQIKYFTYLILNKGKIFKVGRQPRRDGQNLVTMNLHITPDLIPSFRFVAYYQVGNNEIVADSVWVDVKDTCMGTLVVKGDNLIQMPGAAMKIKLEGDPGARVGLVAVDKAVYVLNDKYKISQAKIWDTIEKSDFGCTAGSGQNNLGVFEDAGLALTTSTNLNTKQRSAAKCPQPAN
Sequence (Q91132 733-984 partner limits assumed): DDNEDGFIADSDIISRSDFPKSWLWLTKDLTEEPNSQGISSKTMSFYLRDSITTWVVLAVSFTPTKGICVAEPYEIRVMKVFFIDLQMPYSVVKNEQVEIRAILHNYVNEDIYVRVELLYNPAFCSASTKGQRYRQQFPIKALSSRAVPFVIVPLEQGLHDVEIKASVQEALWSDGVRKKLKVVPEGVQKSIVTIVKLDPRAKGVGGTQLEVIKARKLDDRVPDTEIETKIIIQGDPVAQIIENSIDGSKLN
Sequence (Q91132 1264-1642 partner limits assumed): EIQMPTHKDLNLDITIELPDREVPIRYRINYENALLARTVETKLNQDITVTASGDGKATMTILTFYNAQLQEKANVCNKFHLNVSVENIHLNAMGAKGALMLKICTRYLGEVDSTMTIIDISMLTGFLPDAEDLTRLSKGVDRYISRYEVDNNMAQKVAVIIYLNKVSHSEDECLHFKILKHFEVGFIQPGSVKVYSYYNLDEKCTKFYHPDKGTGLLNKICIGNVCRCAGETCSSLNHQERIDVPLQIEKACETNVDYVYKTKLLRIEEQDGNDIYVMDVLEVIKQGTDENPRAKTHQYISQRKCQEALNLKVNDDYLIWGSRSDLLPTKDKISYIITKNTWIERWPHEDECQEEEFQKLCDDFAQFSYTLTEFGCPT
Outcome measure: IC50 (nM)
// note: answer is a bare numeric in nM

Completed entries (count: 5):
{"Compound": "Cc1cc(C(C)C)c(C(O)(c2nc3cc(C#N)ccc3[nH]2)C(F)(F)F)c2cc[nH]c12 (single isomer, unassigned; (+)) [80-F b) (+)]", "Unit spec": "nM", "Result value": 690}
{"Compound": "CCc1cc(C)c2[nH]cc3c2c1C(O)(c1nc2cc(C#N)ccc2[nH]1)CC3 (single isomer, unassigned) [94 b) (tr = 6.3 min)]", "Unit spec": "nM", "Result value": 1590}
{"Compound": "CNC(c1nc2cc(C#N)ccc2[nH]1)c1c(C)cc(C)c2[nH]ccc12 (racemic)", "Unit spec": "nM", "Result value": 560}
{"Compound": "Cc1cc(C)c2[nH]cc3c2c1C(O)(c1nc2cc(C#N)ccc2[nH]1)CC3 (single isomer, unassigned) [93-F b) (tr = 10.2 min)]", "Unit spec": "nM", "Result value": 950}
{"Compound": "Cc1cc(C2CC2)c(C(O)(c2nc3cc(C#N)ccc3[nH]2)C(F)(F)F)c2cc[nH]c12 (single isomer, unassigned; (-)) [80-E b) (−)]", "Unit spec": "nM", "Result value": 10}

Let us move to another entry and its IC50.
// query Recall the recorded IC50 for Cc1cc(S(C)(=O)=O)c(C(O)(c2nc3cc(C#N)ccc3[nH]2)C(F)(F)F)c2cc[nH]c12 (single isomer, unassigned; (+)) [14-D b) (+)] with factor B (Homo sapiens) and state it.
// result 8410
